All values here come from ChEMBL document CHEMBL5303304.

Items are presented alongside their recorded Growth Rate.
Tested on: U2OS
Assay: Incucyte cell viability with U2OS; also: unitless GR value; below 1 slowed growth and below 0 cell loss
Format: toxicity, cell-based
Details: human, 24 h, 10 µM, compound concentration 10 uM, replicate number 1
Note: the reply should be a number with no unit written.

MOLECULE: C[C@@]1(Cc2ccc(C#N)cc2)C(=O)N(c2cc(Cl)cc(Cl)c2)c2ncc(C(=O)NC3(c4nc(C5CCC5)no4)CC3)n21 [BI 9446]
ASSAYED_TARGET: U2OS
NUMERIC_RESULT: 0.67

Shift focus to the following entry.
Qu. Requested read-out Growth Rate, target or system U2OS, entry C[C@@H]1CC(=O)N(C2CC2)N=C1c1ccc(NC(=O)N2Cc3ccncc3C2)cc1
Ans. 0.95

* * *

Test system: Fibroblast
Test: Incucyte cell viability with human fibroblast; also: unitless GR value; below 1 slowed growth and below 0 cell loss
Format: toxicity, cell-based
Settings: 0 h, 10 µM, compound concentration 10 uM, replicate number 1
Items are presented alongside their recorded Growth Rate.
Note: the reply should be a number with no unit written.

Worked cases, answers included:
SMILES_TEXT: Cc1ncc(C(=O)Nc2cc(C(C)(C)C)on2)cc1-n1cc(-c2cnn(C)c2C)nn1.Cl
Growth Rate: 0.92
--
SMILES_TEXT: COc1ccc(-c2c(-c3ccccc3)oc3ncnc(O[C@H](C)CCCCC(=O)O)c23)cc1
Growth Rate: -1
--
SMILES_TEXT: O=C(Nc1cc(-c2cn[nH]c2)ccc1N1CCOCC1)c1ccc(-c2ccc3ncccc3c2)o1
Growth Rate: -0.23

Qu. Requested read-out Growth Rate, target or system Fibroblast, entry CCc1nc(-c2cccc(C)c2)c(-c2ccnc(NC(=O)c3ccccc3)c2)s1
Ans. -0.56

Qu. Requested read-out Growth Rate, target or system Fibroblast, entry CSc1ccc(C[C@@H](C)C(=O)O)cc1Nc1nc(N2CC[C@H](N(C)C)C2)cc(C(F)F)c1C#N.O=C(O)C(F)(F)F
Ans. -1

Qu. Requested read-out Growth Rate, target or system Fibroblast, entry Cn1cc(NC(=O)c2ccc3nc4n(c3c2)CCCNC4=O)nc1C(=O)NC1CCCC1
Ans. 0.88

Qu. Requested read-out Growth Rate, target or system Fibroblast, entry C=CC(=O)Nc1ccc2[nH]c(=O)n(C3CCN(Cc4ccc(-c5ccc6c(c5)NC(=O)CO6)cc4)CC3)c2c1
Ans. -1

Qu. Requested read-out Growth Rate, target or system Fibroblast, entry Cc1c(N2CCCC2)nc2ccc(Br)cc2c1C(=O)NC[C@H](CCC(=O)O)c1ccccc1Cl.Cl.O
Ans. -1

* * *

Tested on: U2OS
Experiment: Incucyte cell viability with U2OS; also: unitless GR value; below 1 slowed growth and below 0 cell loss
Format: toxicity, cell-based
Settings: human, 18 h, 10 µM, compound concentration 10 uM, replicate number 2
The following ranges of Growth Rate define the classes used here: range 1 (below 0.7), range 2 (0.7 to below 0.9), range 3 (0.9 or more)

# count of solved cases: 4
MOLECULE: COCCNc1nc2ccc(C#CC3(O)CCCCC3)cc2n1-c1ccnc(N)n1
ASSIGNED_CATEGORY: range 2
//
MOLECULE: Cc1cc(OCc2nc3ccccc3s2)ccc1NC(=O)Nc1ccc(Cl)c(Cl)c1
ASSIGNED_CATEGORY: range 3
//
MOLECULE: Cl.Cl.c1ccc2c(-c3cnn4cc(-c5ccc(N6CCNCC6)cc5)cnc34)ccnc2c1
ASSIGNED_CATEGORY: range 1
//
MOLECULE: O=C(NS(=O)(=O)N1CCC1)c1cc(C2CC2)c(OCC23CC4CC(CC(C4)C2)C3)cc1F
ASSIGNED_CATEGORY: range 2

Qu. Sort into band: Cc1ccc(CNc2ncnc3ccc(-c4ccc(CO)o4)cc23)o1
Ans. range 3

Qu. Sort into band: NCC1CCC(CNc2nc(NCc3ccccc3OC(F)(F)F)ncc2[N+](=O)[O-])CC1 (centres undefined)
Ans. range 1

Qu. Sort into band: C[C@]12CC[C@@H]3c4ccc(O)cc4CC[C@H]3[C@@H]1C[C@H]1OC(=O)C[C@]12O
Ans. range 1

Qu. Sort into band: CN(C)C(=O)Cn1cc(-c2ccc(-c3nnc4ccccn34)cc2)cn1
Ans. range 3

Qu. Sort into band: N#CN1CC[C@H](C(=O)Nc2nc3c(s2)CN(C(=O)CN=[N+]=[N-])CC3)C1 [8RK64]
Ans. range 3

Qu. Sort into band: CC(C)(O)c1cn(-c2ccc(-c3cccc(S(C)(=O)=O)c3)cc2)c(C(C)(C)c2ccccc2Cl)n1 [BMS-779788]
Ans. range 2

Qu. Sort into band: COc1cc(C(N)=O)ccc1Nc1ncc2c(n1)N(CCC(C)C)[C@H](C)C(=O)N2C
Ans. range 1

Qu. Sort into band: O=C(O)CCCCN(CCc1cc(F)ccc1OCc1ccc(-c2ccc(C(F)(F)F)cc2)cc1)Cc1ccc(C(=O)O)cc1
Ans. range 2

Qu. Sort into band: C[C@@H](CN1CC[C@@]2(C)c3cccc(O)c3C[C@@H]1C2(C)C)OCc1ccccc1.Cl
Ans. range 3

Qu. Sort into band: CCn1c(-c2nonc2N)nc2ccccc21 [GW549034X]
Ans. range 3

Qu. Sort into band: O=C1CSC(=O)N1C(CCc1ccncc1)COc1ccc(-c2cccc([N+](=O)[O-])c2)cc1 (centres undefined)
Ans. range 3

Qu. Sort into band: COc1ccccc1[C@@H]1CNCCC12CCN(C(=O)[C@](OC)(c1ccccc1)C(F)(F)F)CC2
Ans. range 3

* * *

Tested on: HEK-293T
Assay: Incucyte cell viability with HEK293T; also: unitless GR value; below 1 slowed growth and below 0 cell loss
Assay type: toxicity, cell-based
Conditions: human, 24 h, 10 µM, compound concentration 10 uM, replicate number 1
METRIC_NAME: Growth Rate
Note: the reply should be a number with no unit written.

SMILES_TEXT: CN1CCN(c2ccc(-n3cc(-c4ccncc4OCC4CCNCC4)cn3)cc2)CC1
Growth Rate: 0.11
//
SMILES_TEXT: COc1ncc2cc(C(=O)Nc3cc(C(=O)NCc4cccc(Cl)c4)ccc3Cl)c(=O)[nH]c2n1
Growth Rate: 0.67
//
SMILES_TEXT: CC(=O)N1CCC(c2ccc(C(=O)NC3=NCCN3)cc2C(F)(F)F)CC1
Growth Rate: 0.81
//
SMILES_TEXT: O=c1c(Br)ccc2n1C[C@@H]1CNC[C@H]2C1
Growth Rate: 0.89

Qu. Which Growth Rate is reported for this compound? Fc1ccc(-c2nc(-c3ccc4ccccc4c3F)[nH]c2-c2ccncc2)cc1
Ans. 0.67

* * *

Test system: U2OS
Experiment: Incucyte cell viability with U2OS; also: unitless GR value; below 1 slowed growth and below 0 cell loss
Format: toxicity, cell-based
Conditions: human, 6 h, 10 µM, compound concentration 10 uM, replicate number 2
Items are presented alongside their recorded Growth Rate.
Note: the reply should be a number with no unit written.

Worked cases, answers included:
COMPOUND: Cl.c1ccc2c(c1)CCC[C@H]2Nc1nc2ccccc2[nH]1
ASSAYED_TARGET: U2OS
Growth Rate: 0.97

COMPOUND: CC(C)(C)c1cnc(CSc2cnc(NC(=O)C3CCNCC3)s2)o1 [BMS-387032]
ASSAYED_TARGET: U2OS
Growth Rate: 0.29

COMPOUND: Cn1ccc(Cn2cnc(-c3ccc(F)cc3)c2-c2ccnc3[nH]ccc23)n1
ASSAYED_TARGET: U2OS
Growth Rate: 0.97

Qu. Requested read-out Growth Rate, target or system U2OS, entry O=C(N[C@H](Cc1ccccc1)C(=O)O)c1cccc(OCc2cccnc2)c1.O=CO
Ans. 0.67

Qu. Requested read-out Growth Rate, target or system U2OS, entry COCCCS(=O)(=O)c1cc(C)c(-c2ccc(F)c3c2CC[C@H]3Oc2ccc3c(c2)OC[C@H]3CC(=O)O)c(C)c1
Ans. 0.65

* * *

Items are presented alongside their recorded Growth Rate.
Test system: HEK-293T
Assay: Incucyte cell viability with HEK293T; also: unitless GR value; below 1 slowed growth and below 0 cell loss
Type: toxicity, cell-based
Details: human, 0 h, 10 µM, compound concentration 10 uM, replicate number 2

Worked cases, answers included:
COMPOUND: COc1cccc(-c2c(C)c(Cc3c(F)cccc3C(F)(F)F)c3n(c2=O)[C@@H]([C@@H](N)c2ccccc2)CS3)c1F
RESULT: -0.28
//
COMPOUND: Cc1c[nH]c(-c2cnc(NCCNc3ccc(C#N)cn3)nc2-c2ccc(Cl)cc2Cl)n1
RESULT: 0.92
//
COMPOUND: CCCCCCCN(CCc1ccc(SC(C)(C)C(=O)O)cc1)C(=O)Nc1ccc(F)cc1F
RESULT: -0.91
//
COMPOUND: CC1(C)Oc2ncnc(N)c2N=C1c1ccc([C@H]2CC[C@H](CC(=O)O)CC2)cc1
RESULT: -0.22
//
COMPOUND: O=C(CNCc1cc2ccccc2[nH]1)N[C@H]1CC[C@@H](c2nc3ccccc3[nH]2)CC1
RESULT: -0.87

Qu. Which Growth Rate is reported for this compound? CCn1c(-c2nonc2N)nc2ccccc21 [GW549034X]
Ans. -0.14

Qu. Which Growth Rate is reported for this compound? CC#CC(=O)N1CCN(c2nc(-c3ccc(Oc4ccccc4)cc3)c(C(N)=O)s2)CC1
Ans. -0.85

Qu. Which Growth Rate is reported for this compound? CN[C@@H](C)C(=O)N[C@H]1CCCC[C@H]2CC[C@@H](C(=O)N[C@@H](c3ccccc3)c3cn(CCCCc4ccc(CCCCn5cc([C@@H](NC(=O)[C@@H]6CC[C@@H]7CCCC[C@H](NC(=O)[C@H](C)NC)C(=O)N76)c6ccccc6)nn5)cc4)nn3)N2C1=O
Ans. 0.24

Qu. Which Growth Rate is reported for this compound? CC1(C)C[C@@H]1C(=O)N/C(=C\CCCCSC[C@H](N)C(=O)O)C(=O)O
Ans. 0.73

Qu. Which Growth Rate is reported for this compound? O=C(NCCN1CCOCC1)c1ccc2nn(CCOc3ccc(Cl)cc3)cc2c1
Ans. 0.3

Qu. Which Growth Rate is reported for this compound? CN1CCC(F)(Cn2cnc(-c3ccc(F)cn3)c2-c2ccnc3[nH]ccc23)CC1
Ans. -0.77

Qu. Which Growth Rate is reported for this compound? CCc1ncnc(N2CCN(C(C)=O)CC2)c1C#Cc1ccc(N)nc1.Cl.Cl
Ans. -0.97

Qu. Which Growth Rate is reported for this compound? Cn1ncnc1COc1nn2c(-c3cc(F)ccc3F)nnc2cc1C(C)(C)C
Ans. 0.38
